- System: Plasmodium falciparum strain Dd2
- PROCEDURE TEXT: SYBR Green I fluorescence-based MSF assay, in vitro antimalarial activity, strain Dd2
- Assay type: cell-based
- PARTICULARS: multidrug resistant strain Dd2, 72 hrs incubation
pIC50: −log10 of the molar value.
PROPERTY: pIC50

Return reported pIC50; argument: CCCCCCCc1c(C)[nH]c2cc(F)cc(F)c2c1=O ~10.30
